src = paper PMC8387413

Test system: K562 cells
ASSAY NOTES: K562 viability
Assay type: cell-based
SETTINGS: read-out: Toxicity IC50 μM (95% CI); K562 leukemia cells, 72 hours exposure, n=3
Hi there, I'd appreciate the recorded IC50 for every entry that follows.

# example entries with known answers
COP(=O)(CC/C=C(\C)CO)Oc1ccc2ccc(=O)oc2c1 (stereo not drawn); > 100 µM
C/C(=C\CCP(=O)(O)Oc1ccc2ccc(=O)oc2c1)CO; > 100 µM

// next item, IC50 requested
Problem: Please give the measured IC50 for this molecule: COc1ccc2cc(C(=O)NCCc3ccc(OP(=O)(CC/C=C(\C)COC(C)=O)OCOC(=O)c4ccc(/N=N/c5ccc(N(C)C)cc5)cc4)cc3)c(=O)oc2c1 (stereo not drawn)
Solution: > 100 µM
